target.entity: acetylcholine receptor (Homo sapiens)
Sequence (P02708 21-457): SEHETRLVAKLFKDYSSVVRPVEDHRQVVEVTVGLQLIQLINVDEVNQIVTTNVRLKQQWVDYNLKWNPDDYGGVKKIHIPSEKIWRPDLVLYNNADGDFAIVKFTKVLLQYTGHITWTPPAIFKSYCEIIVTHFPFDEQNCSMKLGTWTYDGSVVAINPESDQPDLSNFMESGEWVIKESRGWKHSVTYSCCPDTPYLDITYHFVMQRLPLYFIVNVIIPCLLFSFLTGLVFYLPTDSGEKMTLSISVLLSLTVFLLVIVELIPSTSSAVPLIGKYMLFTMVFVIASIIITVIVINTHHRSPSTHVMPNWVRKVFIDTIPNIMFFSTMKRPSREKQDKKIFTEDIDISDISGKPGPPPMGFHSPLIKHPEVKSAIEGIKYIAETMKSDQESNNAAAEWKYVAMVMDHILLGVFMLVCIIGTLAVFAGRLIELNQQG
test.description: SPR binding affinity (RU) of optimized 5mer/6mer/7mer peptides, Examples 6-7
run.conditions: SPR, peptides tested at 10 μM; 6mer-1 Bottom sequence (Table 11)
Give true (1) when the value for Binding affinity is at least 30 Ru. Give false (0) when it is less.

              substance                          target_entity        cat
 0  6mer-1-828 (RRPNMK)  acetylcholine receptor (Homo sapiens)  false (0)
 1  6mer-1-953 (KRTNGK)  acetylcholine receptor (Homo sapiens)  false (0)
 2  6mer-1-834 (KRNTIR)  acetylcholine receptor (Homo sapiens)  false (0)
 3  6mer-1-956 (KRKSNK)  acetylcholine receptor (Homo sapiens)   true (1)
 4  6mer-1-964 (RKFKNK)  acetylcholine receptor (Homo sapiens)   true (1)
 5  6mer-1-934 (KRPPGK)  acetylcholine receptor (Homo sapiens)   true (1)
 6  6mer-1-820 (KRNDGK)  acetylcholine receptor (Homo sapiens)  false (0)
 7  6mer-1-813 (RREDFK)  acetylcholine receptor (Homo sapiens)  false (0)
 8  6mer-1-879 (RRYNNR)  acetylcholine receptor (Homo sapiens)  false (0)
 9  6mer-1-837 (KRDHAK)  acetylcholine receptor (Homo sapiens)  false (0)
10  6mer-1-993 (KRAHDK)  acetylcholine receptor (Homo sapiens)  false (0)
11  6mer-1-941 (RKTPKK)  acetylcholine receptor (Homo sapiens)  false (0)
12  6mer-1-949 (RKEMPR)  acetylcholine receptor (Homo sapiens)   true (1)
13  6mer-1-959 (KKIWFR)  acetylcholine receptor (Homo sapiens)   true (1)
14  6mer-1-836 (RRCMIK)  acetylcholine receptor (Homo sapiens)  false (0)
15  6mer-1-969 (RKDHWR)  acetylcholine receptor (Homo sapiens)   true (1)
